Just for reference, paper PMC4516224 is where these values come from.

Molecular target: P-gp (Homo sapiens, UniProt P08183)
Sequence (P08183 whole entry): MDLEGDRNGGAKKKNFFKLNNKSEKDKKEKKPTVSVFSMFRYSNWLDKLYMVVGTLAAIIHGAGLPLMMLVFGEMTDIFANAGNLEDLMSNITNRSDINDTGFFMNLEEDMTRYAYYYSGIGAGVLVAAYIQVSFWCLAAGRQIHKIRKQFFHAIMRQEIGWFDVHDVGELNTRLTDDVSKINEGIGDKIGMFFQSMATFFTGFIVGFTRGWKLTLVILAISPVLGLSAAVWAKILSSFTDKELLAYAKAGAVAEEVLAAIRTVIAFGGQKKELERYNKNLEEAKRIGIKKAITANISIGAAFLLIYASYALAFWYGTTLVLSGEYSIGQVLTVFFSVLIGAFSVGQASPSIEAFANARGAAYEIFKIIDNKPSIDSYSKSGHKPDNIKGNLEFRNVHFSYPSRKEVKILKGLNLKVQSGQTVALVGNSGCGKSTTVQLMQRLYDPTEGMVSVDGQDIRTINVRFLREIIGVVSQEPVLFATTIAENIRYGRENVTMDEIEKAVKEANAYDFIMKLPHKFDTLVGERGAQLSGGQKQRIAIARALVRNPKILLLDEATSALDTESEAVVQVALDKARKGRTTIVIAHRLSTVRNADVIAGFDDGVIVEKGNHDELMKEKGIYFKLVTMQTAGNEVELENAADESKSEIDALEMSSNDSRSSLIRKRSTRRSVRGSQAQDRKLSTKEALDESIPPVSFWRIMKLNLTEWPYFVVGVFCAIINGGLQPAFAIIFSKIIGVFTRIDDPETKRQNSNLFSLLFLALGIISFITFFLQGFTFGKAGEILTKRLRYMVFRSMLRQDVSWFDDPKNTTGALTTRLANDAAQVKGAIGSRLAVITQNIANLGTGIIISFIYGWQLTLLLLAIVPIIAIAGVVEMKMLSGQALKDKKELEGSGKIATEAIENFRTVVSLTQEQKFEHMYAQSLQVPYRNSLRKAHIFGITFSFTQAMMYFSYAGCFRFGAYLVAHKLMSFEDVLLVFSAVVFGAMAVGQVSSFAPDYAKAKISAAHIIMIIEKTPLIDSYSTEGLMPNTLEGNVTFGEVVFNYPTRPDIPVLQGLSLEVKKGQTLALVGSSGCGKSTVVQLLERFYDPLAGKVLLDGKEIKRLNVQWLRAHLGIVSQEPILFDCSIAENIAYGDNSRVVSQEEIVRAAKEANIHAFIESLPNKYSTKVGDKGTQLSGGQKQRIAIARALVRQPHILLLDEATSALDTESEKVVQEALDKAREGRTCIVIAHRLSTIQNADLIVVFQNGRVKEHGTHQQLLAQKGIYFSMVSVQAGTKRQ
Assay: Bi-directional transport across MDCK-MDR1 cell monolayers
Format: in vitro ADME
Conditions: MDCK-MDR1, pH 7.4
measured_endpoint: Papp B→A at 3.5 h, 10 μM (×10⁻⁶ cm/s)

>>> observed_result("C[C@]12C=CC(=O)C=C1CC[C@@H]1[C@@H]2C(=O)C[C@@]2(C)[C@H]1CC[C@]2(O)C(=O)CO [PS, prednisone]")
17.7

----------
Target: P-gp (Homo sapiens)
Assay: Bi-directional transport across MDCK-MDR1 cell monolayers
Format: in vitro ADME
Conditions: MDCK-MDR1, pH 7.4
measured_endpoint: Papp A→B at 3.5 h, 10 μM (×10⁻⁶ cm/s)

>>> observed_result("C[C@]12C=CC(=O)C=C1CC[C@@H]1[C@@H]2C(=O)C[C@@]2(C)[C@H]1CC[C@]2(O)C(=O)CO")
6.97
